- Tested on: heart vasculature
- TEST_DESCRIPTION: In vivo phage homing to the heart after intravenous injection
- CONDITION_DESCRIPTION: peptide displayed on T7Select 415-1 phage, assayed individually, intravenous injection into mice
- Description: In vivo panning was performed as follows. The ex vivo-selected phage pool (5 x 10^9 p.f.u.) was intravenously injected into mice through the tail vein and allowed to circulate for ten minutes before mice were carefully perfused through the left ventricle with DMEM in order to remove unbound intravascular phage. The heart and control tissues (brain, kidney, skin and muscle) were excised, and phage recovered as described in Hoffman et al., supra, 2004. […]
READOUT_TYPE: heart homing selectivity relative to non-recombinant phage

QUERY: What heart homing selectivity relative to non-recombinant phage value was documented for this sequence, `CSGMARTKC` ?
RESULT: ~10 fold
